target: MARK2 (Homo sapiens, UniProt Q7KZI7); assay: FRET-based coupled-enzyme protein kinase inhibition assay; assay type: biochemical; conditions: compound at 10 µM, 1% DMSO
Sequence (Q7KZI7 whole entry, species assumed): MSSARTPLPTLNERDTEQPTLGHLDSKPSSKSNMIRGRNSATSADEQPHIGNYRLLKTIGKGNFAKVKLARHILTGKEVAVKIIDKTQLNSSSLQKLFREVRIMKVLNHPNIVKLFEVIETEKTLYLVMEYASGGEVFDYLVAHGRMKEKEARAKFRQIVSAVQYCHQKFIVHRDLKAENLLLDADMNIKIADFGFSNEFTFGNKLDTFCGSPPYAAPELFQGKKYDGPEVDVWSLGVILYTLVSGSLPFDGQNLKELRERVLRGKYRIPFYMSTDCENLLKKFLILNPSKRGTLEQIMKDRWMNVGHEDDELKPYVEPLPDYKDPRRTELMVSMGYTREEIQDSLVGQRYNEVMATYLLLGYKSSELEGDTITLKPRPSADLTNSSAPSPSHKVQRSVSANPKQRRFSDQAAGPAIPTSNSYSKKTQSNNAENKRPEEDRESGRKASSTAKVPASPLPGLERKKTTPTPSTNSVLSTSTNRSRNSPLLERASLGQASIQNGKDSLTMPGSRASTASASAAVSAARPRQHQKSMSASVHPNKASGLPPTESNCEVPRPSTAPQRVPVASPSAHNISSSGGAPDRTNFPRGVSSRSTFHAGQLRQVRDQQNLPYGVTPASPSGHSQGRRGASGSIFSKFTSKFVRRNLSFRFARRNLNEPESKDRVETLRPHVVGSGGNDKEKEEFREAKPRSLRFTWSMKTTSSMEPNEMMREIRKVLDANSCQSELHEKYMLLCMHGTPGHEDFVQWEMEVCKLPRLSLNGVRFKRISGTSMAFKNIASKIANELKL
observation-type: inhibition at 10 µM (%)

The cases that follow already have their inhibition at 10 µM on record.
compound-smiles | inhibition at 10 µM (%)
Nc1ncnc2c1ncn2[C@@H]1O[C@H](COC(=O)N2CCS(=O)(=O)CC2)[C@@H](O)[C@H]1O | 15
Nc1ncnc2c1ncn2[C@@H]1O[C@H](COC(=O)N[C@@H]2CCN(Cc3ccccc3)C2)[C@@H](O)[C@H]1O | 8
CC(C)N1CCC(NC(=O)OC[C@H]2O[C@@H](n3cnc4c(N)ncnc43)[C@H](O)[C@@H]2O)CC1 | 7

(A) C[C@@H](NC(=O)OC[C@H]1O[C@@H](n2cnc3c(N)ncnc32)[C@H](O)[C@@H]1O)c1ccc(Cl)cc1
(B) Nc1ncnc2c1ncn2[C@@H]1O[C@H](COC(=O)NCCN2CCCC2=O)[C@@H](O)[C@H]1O
(C) Nc1ncnc2c1ncn2[C@@H]1O[C@H](COC(=O)NCCCc2nc3ccccc3[nH]2)[C@@H](O)[C@H]1O
(D) Nc1ncnc2c1ncn2[C@@H]1O[C@H](COC(=O)N2CCN(C(=O)N3CCOCC3)CC2)[C@@H](O)[C@H]1O
input: Sort low-to-high on inhibition at 10 µM, please. Enter labels, ranked according to the request.
output: D, C, B, A
